# Method Notes: soluble on expression in E. coli; label from the status in PepcDB or PDB records
Attribute Measured: soluble on expression in E. coli

Sequence Record	Attribute Measured	Result
MLIHYIDIAKRNFVIAVSSLSKTKTETNNPKGIAHTIEYLKKHKVALVVTESTGGLEIPAAKAIHRAGIAVIIANPRQTHQFAQSQSLTKTDAKDAKMPAFFAQMKAQKEDWQTMPYHPPTEAEEVLEALVNRRNQSADMRTAEKNRLHQVHETQVGSVKQLIAHFDRLIDESDKQIDDHTHTHFDGKAQVAEQIKGIGSITTATLMAMLPELGRLSHKRIASLVGIAPHPRKSGEAKFKSRCFGGRSAVLKALYMATVAATRFEPLIRDFHQRPLSEGKPYKVAVTACMRKLLETFAKFLSLTTTEIPTQVFGCFRPKYRLILPKHPLNPPRTPDNQASGLPFRRQRAHLACWRLSTGSNTSPSDGFAHSL	soluble on expression in E. coli	not soluble
MGSDKIHHHHHHMNAVLQKKGGVGIIILARLDSTRLPGKALRTAAGKEMLGYVVERARMVRGVSEIVLATTDRTVDDRLEEYAAACDLAVFRGSDVDVAGRVAACVRWRGWDAFVRINGDSPFIDPQTISSAVNLLYGLGGVSAAGLSDSHAQRGNMHAECASLPLVACGSVTLAGYAGHDATELPDMVTNVLRRTFPKGQSVEVCRASAFLAGYAAMHLPEHLEHVTKYFYDTRSIRIMNMESGDPSLGEIQLAVDTEEDFALFERMLARMDRPHTAYAAHEIIELYRECLHG	soluble on expression in E. coli	not soluble
MEIKDTYNIGELSPGMTATFEGEVISALPIKEFKRADGSIGKLKSFIVRDETGSIRVTLWDNLTDIDVGRGDYVRVRGYIREGYYGGLECTANYVEILKKGEKIESLEHHHHHH	soluble on expression in E. coli	not soluble

====

# Method Notes: soluble on expression in E. coli; label from the status in PepcDB or PDB records
Attribute Measured: soluble on expression in E. coli

Sequence Record	Attribute Measured	Result
GLTYDLNGNISTYRNEILELPETVAANGKFGGNGVKSVVGHTYGAQVGYIADGIFKSQDEVDNHATQEGAAVGRIRYRDIDHNGVIDERDQNWIYDPTPSFSYGLNIYLEYKNFDLTMFWQGVQGVDIISDVKKKSDFWSASNVGFLNKGTRLLNAWSPTNPNSDIPALTRSDTNNEQRVSTYFVENGSFLKLRNIQLGYTVPAVISKKMRMDRLRFYCSAQNLLTIKSKNFTGEDPENPNFSYPIPVNITFGLNIGF	soluble on expression in E. coli	not soluble
MGSDKIHHHHHHASCSGGDKSKAPVVSTADIENAAEVIKYYNTSLGVLKDMVKEKDVNAVLDYMEQKGKTPALSAIVPPAVVSKDSAIVLNPGNCFNEETRRNLKQNYTGLFQARTEFYANFDTYLSYLKKKDVTNAKKLLDVNYQLSTQMSEYKQNIFDILSPFTEQAELVLLVDNPLKAQIMSVRKMSSTMQSILNLYARKHRMDGPRIDLKVAELTKQLDAAKKLPVVNGHEGEMKSYQAFLSQVETFIKQVKKVREKGEYSDADYDMLTSAFETSII	soluble on expression in E. coli	not soluble
MGAQVSTQKTGAHETGLRASGNSIIHYTNINYYKDAASNSANRQDFTQDPGKFTEPVKDIMVKSLPALN	soluble on expression in E. coli	soluble
SASGYQFGSVDQVEGGSVQYTRKYLGTGNLNDLYVGIGATPFKNFSIGANASSLFGRFTHSRQVIFSTEAPYNPVHLSTLYLKAAKFDFGMQYHLLLKSDRSLVIGAVYSPRVKMHSELTQIKNQVQNGVVVESETQEYIKGMDYYTLPHTLGIGFSYEKKDKLLLGADVQYSKWKGEKFYKSDCKFQDRIRVSLGGEIIPDINAVGMWPKVRYRFGLHGENSYLKVPTKGGV	soluble on expression in E. coli	not soluble
MKGYGEMAKNNPTRITAEPGKQEIIITREFDAPRELVFKAFTDPDLYTQWIGPRGFTTALKIFEPKNGGSWQYIQKDPEGNEYAFHGVNHDVTEPERIISTFEFEGLPEKGHVILDTARFEALPGDRTKLTSHSVFQTIEDRDGMLQSGMEEGINDSYERLDELLEKMKKLEHHHHHH	soluble on expression in E. coli	soluble
MQAYSNPGYSSFPSPTGLEPSCKSCGAHFANTARKQTCLDCKKNFCMTCSSQVGNGPRLCLLCQRFRATAFQREELMKMKVKDLRDYLSLHDISTEMCREKEELVLLVLGQQPVISQEDR	soluble on expression in E. coli	soluble
MSVNALYDYKFEPKDKVENFHGMQLLYVYWPDHLLFCAPFALLVQPGMTFSALVDEILKPATAAHPDSAKADFLNAEWLLNDEPFTPKADASLKEQGIDHKSMLTVTTPGLKGMANAGY	soluble on expression in E. coli	soluble
MLRLFKIQKAPLSQFSKASNEIVKDFIEKMEKAAGSGDKVKFSDCFTEDFQFFACSFTANKAQFVEKHLTNPNPEPVIPKYSNFDENDSKIKFTVSRRVGPEVNIVDFDLLRENDGPWRLQWGKVTTCP	soluble on expression in E. coli	not soluble

====

# Method Notes: soluble on expression in E. coli; label from the status in PepcDB or PDB records

Sequence Record	soluble on expression in E. coli
MAHHHHHHMDKDKDKSKNTPLLYQDTMNDLGDGLQNMDTLRLNRNGNTGNGNKNKTNGSKGVKGEYEKKKETNGHDDYVKESLNRMLESHIDQYFKGLDYYKNNPKCKIDPKIHLHGSEEIENYIVKEKIFVTTYFQYIDVYENAINVDEDLEKEEIVYVEVPKYVTKYKPKIVTNIIEKTIEIPSGEEIKQPKYNTVNVPYVIPNIVENEILVVLKKIIQPEIEITNEELEIEVEKYIPRLVPVNVYVPRYFGISAKAKGEPEESVRYVDLTQDQIDELMKELNPHLNELKVFNETQLKRMDEYMRESQMQARAHNFEPPQPQLITYDESGHCQSYDYSEFHRFKETCIKELTH	not soluble
IDAPSFRDKRQADKLFEKDTMDWKVSINDKSIDYSQYKMPGKKGAFPYSNLDEQLAEYNELNGVYFSNGKRVELSELQATGTAKETHRVNSPLTKAKIAYLEMTDEERQLFMKWVSQQ	not soluble

====

# Method Notes: soluble on expression in E. coli; label from the status in PepcDB or PDB records
Attribute Measured: soluble on expression in E. coli

Sequence Record	Attribute Measured	Result
KVQSTFAKYSRVRSMTGMTGAEAAKRLLNSQGIYDVQVRKVAGNLTDHYDPRNKTLNLSESVYDSPSVAAIGVAAHECGHAIQDNTEYAPLKIRGAIVPVVNIGTQLSWPM	soluble on expression in E. coli	not soluble
MLDMELESFLSMEKQGDISDAFLSAVKAEMQQMVLYAAGLAVRNIEETNRLRQKAKELYFYYLERYSPLAEMYKGSEMSLHNAGTATLRGHKNLAGGKRIDIGLWDGSKEFFHEYCYLPDDVQIRLFISKIQLLHFVVGAITTPQYVEKVALLGKVVGSSRYLELLRSFIDLNDPSGKNYSRGLFFYDHKFDKLEEVGKEVGENLPEVIKRFFPDKWVLVDVWATWCSPCKKEFGYNKQLHAFLEEKGIAMLYCSVDEPENSDNWRNNLSAFGLTGYHYYITSKAEKELLKIPDFRMLIPRYLLFDNKGKLVHANLPRPSSEKALYEEIEKLMQGN	soluble on expression in E. coli	not soluble

====

# Method Notes: soluble on expression in E. coli; label from the status in PepcDB or PDB records

Sequence Record	soluble on expression in E. coli
MGSDKIHHHHHHGNSKSRNDRTETVDKEVIKAPEFDADSAYQYIQVQADFGPRVPNTQAHKECGEYLAGQLEKFGAKVYNQYADLIAYDGTILKSRNIIGAYKPESKKRILLCAHWDSRPYADNDPDPKNHHTPILGVNDGASGVGVLLEIARQIQKEQPALGIDIVFFDSEDYGIPEFYDGKYKQDTWCLGSQYWARTPHVQNYNARYGILLDMVGGKDATFYYEGYSARTARSEMKKIWKKAHELGYGKYFVKEDGGETVDDHIYVNKLARIPCVDIINYDAGNPQSSFGSFWHTVNDTMENIDRNTLKAVGQTVMDVIYNEK	not soluble
MGQFPRTVVHAAGTTEITTKPERVVVLDTGELDSVLSLGITPVGMTTTKGANPVPSYLADKVKDVERVGTINELNIEAIAALKPDLIIGSQLRADKLYPQLSDIAPTVFSIRPGSPWKENFLLVGEALGMEKEAEEKLNEYADRVAELKNNVPQNTEVSLVRFMPNKLRLYGNKSLIGVVLADAGLARPEKQNVDDLAVEISPENIDQAAGSVIFYTSYGKPDATGETAVVEGPAWKNLEAVAAGKAHRVNDDVWFLGLGPTGAMEIVSDLHDYLLEHHHHHH	soluble
MEPEFLYDLLQLPKGVEPPAEEELSKGGKKKYLPPTSRKDPKFEELQKVLMEWINATLLPEHIVVRSLEEDMFDGLILHHLFQRLAALKLEAEDIALTATSQKHKLTVVLEAVNRSLQLEEWQAKWSVESIFNKDLLSTLHLLVALAKRFQPDLSLPTNVQVEVITIESTKSGLKSEKLVEQLTEYSTDKDEPPKDVFDELFKLAPEKVNAVKEAIVNFVNQKLDRLGLSVQNLDTQFADGVILLLLIGQLEGFFLHLKEFYLTPNSPAEMLHNVTLALELLKDEGLLSCPVSPEDIVNKDAKSTLRVLYGLFCKHTQKAHRDRTPHGAPN	soluble
GTDDEEKDNNGQGSVSVETNYLPIADPYVMFYNNKYYAYGTGGTTAGEGFACFSSDDLKNWKREGQALSATDSYGTWGFWAPEVYYVESKKKFYLFYSAEEHICVATSTTPEGPFRQEVKQPIWSEKSIDTSLFIDDDGTPYLYFVRFTDGNVIWVAQMTDDLMSIKTETLNQCIKAEVSWELLQGKVAEGPSLLKKNGVYYLIYSANHYENKGYGVGYATSDTPMGPWVKYSKNPLLQGDAATGLVGTGHGAPFQCKDGSWKYIFHAHWSAAEIQPRTSYIKDFAISDQGVVTISGTVIKPRVLK	soluble
MELEQREGTMAAVGFEEFSAPPGSELALPPLFGGHILESELETEVEFVSGGLGGSGLRERDEEEEAARGRRRRQRELNRRKYQALGRRCREIEQVNERVLNRLHQVQRITRRLQQERRFLMRVLDSYGDDYRASQFTIVLEDEGSQGTDAPTPGNAENEPPEKETLSPPRRTPAPPEPGSPAPGEGPSGRKRRRVPRDGRRAGNALTPELAPVQIKVEEDFGFEADEALDSSWVSRGPDKLLPYPTLASPASD	soluble
MPGIIYEGKGTNMEYADVFDSLVGDLKDDVLSLQLTNFDDVNHSYKSDGKCSMSVKDFDGYAENMPVKNVEYNGQKYIFMRSISDDAQPSQVFISVDGDERGRKRGMLITSFCGILRMISTFDYQIANSVTAKIFKVLGEYSCEEEE	not soluble
